Provenance of the data: ChEMBL document CHEMBL1201862

# Test system: SF-268
# procedureDetails: NCI tumour cell line growth inhibition, 48 h
Activity calls are given as the source filed them. Cut-off read from the data, not from the text of the source: active = GI50 up to about 1.1 µM and inactive = higher.
Classes used: active, inactive

# molecule, testedTarget, group
rows = [
    ("COc1cnnc2c(C)c(-c3ccccc3)nn12", "SF-268", "inactive"),
    ("CC(=O)c1ccccc1NP(=O)(c1ccccc1)c1ccccc1", "SF-268", "inactive"),
    ("O=C(O)/C=C/c1ccc(O)c(O)c1", "SF-268", "inactive"),
    ("CN(C)CCNC1=Nc2ccccc2C(=O)N2CSCC12 (configuration not stated)", "SF-268", "inactive"),
    ("CCCCNc1nc(C#N)c(N)s1", "SF-268", "inactive"),
    ("COc1ccc(/C=C2\\CCC/C(=C\\c3ccc(O)c(CN4CCCCC4)c3)C2=O)cc1", "SF-268", "inactive"),
    ("O=C(CCCn1cnc([N+](=O)[O-])n1)NCCn1ccnc1[N+](=O)[O-]", "SF-268", "inactive"),
    ("NCCCN(CCCCN(CCCN)Cc1ccc2ccccc2c1)Cc1ccc2ccccc2c1", "SF-268", "inactive"),
    ("CCNC(=O)c1cc(Cl)ccc1NC(=O)C12CC3CC(CC(C3)C1)C2", "SF-268", "inactive"),
    ("CC1(C)C(=NNC(=S)NN)C(C)(C)C1=NNC(=S)NN", "SF-268", "inactive"),
    ("CC1=NNC(=O)C1C1C=C(c2c[nH]c3ccccc23)OC1=O (configuration not stated)", "SF-268", "inactive"),
    ("CCCCCCCCCCCCCC(=O)O[C@H]1CC[C@H](NC(=O)[C@H](OC)[C@H](O)[C@@H](O)[C@H](O)/C=C/C(C)C)C(=O)N(C)C1 [BENGAMIDE B]", "SF-268", "active"),
    ("COc1nc(O)nc2c1C(c1ccc([N+](=O)[O-])cc1)c1c(OC)nc(O)nc1O2", "SF-268", "inactive"),
    ("CC1(C)CN(CC(=O)O)CC(Cc2ccc(OCC(=O)O)cc2)N(CC(=O)O)CC(C)(C)SS1 (configuration not stated)", "SF-268", "inactive"),
    ("COc1cc2c(/C=C3/C(=O)N(C)c4ccc(O)cc43)c(Cl)[nH]c2cc1C", "SF-268", "inactive"),
    ("CN(C)CC[N+]1=Nc2cccc3cccc(c23)N1", "SF-268", "inactive"),
    ("O=C(CSSCC(=O)OCCS(=O)(=O)Nc1ccc(Br)cc1)OCCS(=O)(=O)Nc1ccc(Br)cc1", "SF-268", "inactive"),
    ("NCCCN(CCCN(C(=O)Nc1ccccc1)c1ccccc1)C(=O)Nc1ccccc1", "SF-268", "inactive"),
    ("CC(C)(C)OC(=O)N[C@H]1CC2(C=C(Cl)C(=O)C(Cl)=C2)OC1=O", "SF-268", "inactive"),
    ("O=C1C2Nc3ccccc3SC2C(=O)N1c1cccc([N+](=O)[O-])c1 (configuration not stated)", "SF-268", "inactive"),
    ("CCN(CC)CCn1c2cc3c(cc2c(=O)c2cccnc21)OCO3", "SF-268", "inactive"),
    ("COC(=O)[C@@H](NC(=O)N(CCC#N)CCCN(C(=O)N[C@H](Cc1ccccc1)C(=O)OC)c1ccccc1)C(C)C", "SF-268", "inactive"),
    ("CSCCC(NCc1c(O)ccc2ccc(=O)oc12)C(=O)O (configuration not stated)", "SF-268", "inactive"),
    ("C/C(CC(=O)Nc1ccc(C)c(C)c1)=N\\NC(N)=S", "SF-268", "inactive"),
    ("CC(C)(C)OCC1NC(=O)[C@@H]2Cc3c([nH]c4ccccc34)C(C3CCCCC3)N2C1=O (some centres not stated)", "SF-268", "inactive"),
    ("CC1=NN(c2cccc(Cl)c2)C2(SCC(=O)N2c2nc3ccccc3s2)C1=CC=Cc1ccccc1 (configuration not stated)", "SF-268", "inactive"),
    ("CCC1c2[nH]c3ccccc3c2C[C@H]2C(=O)NC(Cc3ccccc3)C(=O)N12 (some centres not stated)", "SF-268", "inactive"),
    ("CCOC(=O)NC1C2CC(=O)OC(O2)C1OC(C)=O (configuration not stated)", "SF-268", "inactive"),
    ("O=C1c2ccc(O)c(O)c2C(=O)c2c(O)ccc(O)c21", "SF-268", "inactive"),
    ("COc1cc([C@@H]2c3cc4c(cc3[C@H](O)[C@H]3COC(=O)[C@H]23)OCO4)cc(OC)c1OC", "SF-268", "active"),
    ("O=C(N/N=C\\c1cccc2c([N+](=O)[O-])cccc12)Nc1ccccc1", "SF-268", "inactive"),
    ("CC1(C)C(=S)C(C)(C)C1=S", "SF-268", "inactive"),
    ("CC(C)(C)[Si](C)(C)OCC1OC(n2cc(I)c(=O)[nH]c2=O)C(O[Si](C)(C)C(C)(C)C)C1O[Si](C)(C)C(C)(C)C (configuration not stated)", "SF-268", "inactive"),
    ("COc1ccc2c(O)c(S(=O)(=O)c3ccc(C)cc3)c(=O)oc2c1OC", "SF-268", "inactive"),
    ("Nc1nc2ccc3ccccc3c2[nH]1", "SF-268", "inactive"),
    ("O=C1NN=C2C=C(c3ccc(Cl)cc3)CC(c3cccc(Br)c3)C12 (configuration not stated)", "SF-268", "inactive"),
    ("COc1cc(/C=N/N=C(\\N)NO)cc(Cl)c1O", "SF-268", "inactive"),
    ("CSc1ccc2c(c1)N(CCCN(C)C)c1ccccc1S2", "SF-268", "inactive"),
    ("COc1ccc2cc3nc(O)cc(O)c3cc2c1OC", "SF-268", "inactive"),
    ("CN(/C(=N\\O)c1ccccc1)c1ccccc1", "SF-268", "inactive"),
    ("O=C1C(Nc2ccc(S(=O)(=O)Nc3cnc4ccccc4n3)cc2)=C/C(=N\\c2ccc(S(=O)(=O)Nc3cnc4ccccc4n3)cc2)c2ccccc21", "SF-268", "inactive"),
    ("O=[N+]([O-])c1ccc(C2NC(=S)NC3c4cc([N+](=O)[O-])ccc4CCCC23)cc1 (configuration not stated)", "SF-268", "inactive"),
]

---

# Test system: SW-620
# procedureDetails: NCI tumour cell line growth inhibition, 48 h
Active and inactive are the calls of the source. Cut-off read from the data, not from the text of the source: active = GI50 up to about 1.1 µM and inactive = higher. Residues, ends and D or L forms follow the SMILES beside them. Groups on a side chain read outwards from the residue. *: point of attachment. Cbz = O=C(OCc1ccccc1)*; Boc = CC(C)(C)OC(=O)*
Reported GI50 values for a set of molecules

# molecule, GI50
records = [
    ("COc1cc(-c2cc(=O)c3c(OC)c(OC)c(OC)c(OC)c3o2)c(OC)c(OC)c1OC", "45.3 µM (inactive)"),
    ("Cc1cc(N(CCC#N)CCC#N)ccc1/C=C(\\NC(=O)/C=C/c1ccccc1)C(=O)N=[N+]=[N-]", "> 100 µM (inactive)"),
    ("O=C1c2ccccc2C(=O)c2sc(Nc3ccccc3C(F)(F)F)nc21", "6.1 µM (inactive)"),
    ("O=C(n1c(=O)n(-c2ccc(Cl)cc2)c(=O)n1C(=O)C(Cl)(Cl)Cl)C(Cl)(Cl)Cl", "> 100 µM (inactive)"),
    ("COc1c(Sc2ccccc2)cc(Sc2ccccc2)c2cccnc12", "39.2 µM (inactive)"),
    ("NC(=O)C12C3C4C1C1C2C3C41C(N)=O (centres undefined)", "> 100 µM (inactive)"),
    ("CC(C)(C)/C(=N\\Nc1nc2ccccc2[nH]1)c1ccccn1", "65.2 µM (inactive)"),
    ("Cc1cc(O)nc(NNC(C#N)c2ccc(N(C)C)cc2)n1 (centres undefined)", "> 100 µM (inactive)"),
    ("CC1=C(C(=O)Nc2ccccc2C)C(c2ccccc2O)C(C(=O)Nc2ccccc2C)=C(C)N1", "33 µM (inactive)"),
    ("CN(C)CCOc1cc2c(c3ccccc13)-c1ccccc1C2O (centres undefined)", "12.4 µM (inactive)"),
    ("Cc1cc(S(=O)(=O)Nc2n[nH]c(-c3ccc(Cl)cc3)n2)c(SSc2cc(Cl)c(C)cc2S(=O)(=O)Nc2n[nH]c(-c3ccc(Cl)cc3)n2)cc1Cl", "24.8 µM (inactive)"),
    ("Cc1nnc2n1-c1ccccc1-c1[nH]c3ccccc3c1C2", "> 100 µM (inactive)"),
    ("Nc1nc2ccc3ccccc3c2[nH]1", "> 10 µM (inactive)"),
    ("CC(C)(C)OC(=O)NC(CCCCNC(=O)CNC(=O)OCc1ccccc1)C(=O)NC(CCCCNC(=O)CNC(=O)OCc1ccccc1)C(=O)NC(CCCCNC(=O)CNC(=O)OCc1ccccc1)C(=O)NC(CCCCNC(=O)CNC(=O)OCc1ccccc1)C(=O)O (centres undefined) (Boc-K([Gly-Cbz])K([Gly-Cbz])K([Gly-Cbz])K([Gly-Cbz])-OH; configuration not given here)", "> 100 µM (inactive)"),
    ("CC1(C)C(=O)N(O)C(C)(C)N1N=O", "> 10 µM (inactive)"),
    ("CCOC(=O)/C(=C/c1ccc(C(=O)OC)cc1)N(CC)CC", "35.3 µM (inactive)"),
    ("COC(=O)C1=COc2c(n(C)c3ccccc23)-c2ccccc21", "> 100 µM (inactive)"),
    ("COc1c(O)cc2c3c(ccnc13)NC=C2", "68.2 µM (inactive)"),
    ("C[C@]12C(=O)OC[C@H](c3ccccc3)N1C(=O)N(Cc1ccccc1)[C@@H]2CO", "> 100 µM (inactive)"),
]
